- System: A549
- Assay text: NCI tumour cell line growth inhibition, 48 h
Calls of active or inactive are those of the source. Rule as the data show it: active = GI50 up to about 1.1 µM and inactive = higher.
Readout: GI50

> print(dat)
                                    compound  readout        reported.value
 1  [O-][S+]1[C@H](c2ccccc2)c2c(-c3ccccc3)sc(-c3ccccc3)c2[C@@H]1c1ccccc1 (stereo partly drawn)     GI50    10.8 µM (inactive)
 2  N/C(=N\c1ccc(Cl)cc1)NS(=O)(=O)c1cc(Cl)c(Oc2ccc([N+](=O)[O-])cc2Cl)c(Cl)c1     GI50    17.2 µM (inactive)
 3  CCOc1ccc(/N=N/C2C(=O)N(C(=O)CC(=O)Nc3ccc(C)cc3)N=C2C)cc1 (stereo not drawn)     GI50    34.7 µM (inactive)
 4  Cn1c(C2CC(C)(C)c3c2c2ccccc2n3C)cc2ccccc21 (stereo not drawn)     GI50   > 304 µM (inactive)
 5                Nc1ncnc2c1nc(O)n2-c1ccccc1     GI50   > 100 µM (inactive)
 6  Cc1c(C(=O)N2CCN(c3ccc([N+](=O)[O-])cc3)CC2)[n+]([O-])c2cc(Cl)c(Cl)cc2[n+]1[O-]     GI50    20.2 µM (inactive)
 7  NC(=O)CCC(NC(=O)Cc1ccccc1)C(=O)O.NC(CCC(=O)NC(=O)Cc1ccccc1)C(=O)O (stereo not drawn)     GI50  > 8130 µM (inactive)
 8           CCOC(=O)c1cccc(=O)c(C(=O)OCC)c1     GI50    46.9 µM (inactive)
 9       Cc1ccccc1C(=O)Oc1ccc(OCc2ccccc2)cc1     GI50    35.2 µM (inactive)
10  COC(=O)/C=C(/C(=O)OC)C1(C)c2cc(C(=O)OC)c(C(=O)OC)c(N)c2C(=N)N1c1ccccc1 (stereo not drawn)     GI50      42 µM (inactive)
11  C[C@H]1S[C@H](c2c(Cl)cccc2Cl)N2Cc3ccccc3N=C12     GI50    15.2 µM (inactive)
12         O=c1cc(NNc2ccccc2F)[nH]c(=O)[nH]1     GI50      55 µM (inactive)
13  Cc1cc2c(c(/C=N/Cc3ccccc3)c1)OC1(C=C2)Oc2ccccc2C(=O)N1C (stereo not drawn)     GI50    29.5 µM (inactive)

====

Test system HCT-15, GI50 listed for each of the compounds.
Readout: GI50

> print(dat)
                            compound.string  measurement.target  reported.value
1            CC/C=C1\N=C(c2ccc(Cl)cc2)OC1=O              HCT-15        > 100 µM
2         CCOC(=O)C(=O)Nc1c(C)cccc1C(C)(C)C              HCT-15        > 100 µM
3  Cn1c(-c2c(C3=CC(=O)N(c4ccccc4)C3=O)c3ccccc3n2C)cc2ccccc21              HCT-15        > 100 µM

====

- System: EKVX
- Assay text: NCI tumour cell line growth inhibition, 48 h
Calls of active or inactive are those of the source. Cut-off read from the data, not from the text of the source: active = GI50 up to about 1.1 µM and inactive = higher.
Readout: GI50

Compound	Reported value
C/C(CC(=O)N(C(C)C)C(C)C)=N\NC(=O)c1ccncc1	> 100 µM (inactive)
S=c1nc(Nc2ccc(Cl)cc2)c2c3c(sc2[nH]1)CCCC3	> 100 µM (inactive)
CCCC[C@H]1C(=O)O[C@H](C)[C@H](NC(=O)c2cccc(NC=O)c2OC)C(=O)O[C@@H](C)[C@@H]1OC(=O)C(C)CC.CCCC[C@H]1C(=O)O[C@H](C)[C@H](NC(=O)c2cccc(NC=O)c2OC)C(=O)O[C@@H](C)[C@@H]1OC(=O)CC(C)C (stereo partly drawn)	11 µM (inactive)
COc1cc(C(=O)C/C(CCC(=O)Nc2ccc(Cl)cc2C)=N/NC(=O)C(N)=O)ccc1O	> 100 µM (inactive)
O=C1COc2cc(NC(=S)Nc3ccccc3)ccc2N1	> 100 µM (inactive)
Cc1cn(Cc2cn(CC3OC(n4cc(C)c(=O)[nH]c4=O)CC3O)nn2)c(=O)[nH]c1=O (stereo not drawn)	> 100 µM (inactive)
COc1cc(O)c2c(=O)c3c(C)cccc3n(C)c2c1	4.17 µM (inactive)
C=C(C)C12CC3CC(/C(=N/O)C(C1)/C3=N\O)[C@@]2(C)O (stereo partly drawn)	> 100 µM (inactive)
COC(=O)[C@H]1NC(=O)CCSSC1(C)C	> 100 µM (inactive)
COc1ccc(/C=C/[N+](=O)[O-])cc1	13.2 µM (inactive)
CCCCC(=O)OC[n+]1cccc(-c2c(COC(=O)NC(C)C)c(COC(=O)NC(C)C)c3n2CCC3)c1	> 100 µM (inactive)
O=C(Cn1c2c(c3ccccc31)CCCC2)N1CCCC1	> 100 µM (inactive)
COC(=O)C#Cc1ccc([N+](=O)[O-])cc1	1.76 µM (inactive)
COc1ccccc1N1C(=O)CSC1c1c[nH]c2ccccc12 (stereo not drawn)	> 100 µM (inactive)
CCOC(=O)C(C#N)C1=CC(=O)C(=O)c2ccc(O)cc21 (stereo not drawn)	> 100 µM (inactive)
Cc1nnc2n(c1=O)CCN2C	> 100 µM (inactive)
O=C1C=C(N2CCCC2)C=C(N2CCCC2)C1	> 100 µM (inactive)
CC(=O)OC/C=C(/CCl)CCC(Br)C(C)(C)Br.CC(=O)OC/C=C(\CCl)CCC(Br)C(C)(C)Br (stereo not drawn)	> 10 µM (inactive)

====

- System: MOLT-4
- Assay text: NCI tumour cell line growth inhibition, 48 h
The source made the active and inactive calls. Cut-off read from the data, not from the text of the source: active = GI50 up to about 1.1 µM and inactive = higher.
Readout: GI50

> print(dat)
                                   molecule       reported.value
1  Nc1cc2c(nnn2C2OC(COCc3ccccc3)C(OCc3ccccc3)C2OCc2ccccc2)c(=O)[nH]1 (centres undefined)   7.85 µM (inactive)
2  CC1=NN(C(=O)CSc2nnc(SCC(=O)N3N=C(C)CC3(O)c3ccccc3)s2)C(O)(c2ccccc2)C1 (centres undefined)   32.3 µM (inactive)
3       COc1ccc(N2C(=O)c3cccnc3S2(=O)=O)cc1  > 100 µM (inactive)
4         O=c1cc(NNc2ccccc2F)[nH]c(=O)[nH]1   23.4 µM (inactive)

====

Reported GI50 values are given for each entry in this list.
- Tested on: UACC-62
- Assay text: NCI tumour cell line growth inhibition, 48 h
Calls of active or inactive are those of the source. No stated cut-off is given here; in the data, active = GI50 up to about 1.1 µM and inactive = higher.
Readout: GI50

> print(dat)
                                   compound  readout       reported.value
1  O=Cc1c(O)c(C(=O)Nc2ccc3[nH]c(=O)[nH]c3c2)cc2ccccc12     GI50  > 100 µM (inactive)
2           Cc1ccc(C)c2c1CCc1cc3ccccc3nc1-2     GI50  > 100 µM (inactive)
3         CC(=O)n1c(COS(C)(=O)=O)nc2ccccc21     GI50  > 100 µM (inactive)
4                    Oc1ccccc1/C=N/Cc1ccco1     GI50  > 100 µM (inactive)
5  C/C=C(\C)C(=O)OC1C2C(C)C(=O)OC2C(O)C(C)C2C=CC(=O)C21C (centres undefined)     GI50   10.5 µM (inactive)
6      Cc1c2n(c3ccccc13)S(=O)(=O)c1ccccc1-2     GI50   28.1 µM (inactive)
7  CC1(C)CC(=O)C2=C(C1)NC1=C(C2)C(=O)CC(C)(C)C1     GI50  > 100 µM (inactive)
8      O=C(O)CN1CCN(CC(=O)O)CCN(CC(=O)O)CC1     GI50   7.98 µM (inactive)
9  CC1OC(CO)(n2cnc3c(N)ncnc32)C(O)C1O (centres undefined)     GI50  > 100 µM (inactive)

====

- System: SNB-78
- Assay text: NCI tumour cell line growth inhibition, 48 h
Active and inactive are the calls of the source. No stated cut-off is given here; in the data, active = GI50 up to about 1.1 µM and inactive = higher.
Reported GI50 values are given for each entry in this list.
Readout: GI50

> print(dat)
                                   molecule       reported.value
1  COc1cc(OC(C)=O)cc2c(OC(C)=O)ccc(OC(C)=O)c12  > 100 µM (inactive)
2  COc1ccc(/C(Cl)=C(\C=N/O)c2ccc(OC)c(OC)c2)cc1OC   75.5 µM (inactive)
3  C=C(C)C12CC3CC(/C(=N/O)C(C1)/C3=N\O)[C@@]2(C)O (some centres not stated)  > 100 µM (inactive)
4  CC(=O)OCC1OC(n2c(=S)n(-c3ccccc3)c(=O)c3cc(Br)ccc32)C(OC(C)=O)C1OC(C)=O (configuration not stated)  > 100 µM (inactive)
5  C=C1C(=O)OC2CCCCC3OC3C12 (configuration not stated)   19.4 µM (inactive)
6  CC[P+](C)(Cc1ccccc1)c1ccccc1.O=C(OC(C(=O)[O-])C(OC(=O)c1ccccc1)C(=O)O)c1ccccc1 (configuration not stated)  > 100 µM (inactive)
7  Nc1nc(N)c(CCCCc2ccccc2)c(/C=C/c2ccc([N+](=O)[O-])cc2)n1   2.59 µM (inactive)
